Tested on: SK-MEL-5 melanoma
Assay: NCI tumour cell line growth inhibition, 48 h
Where a SMILES comes first, the peptide text is derived from it. [ ]: non-standard residue; d: D form. The star is where a group is joined. ξ: configuration not given here. NMeF = CN[C@@H](Cc1ccccc1)C(=O)O; NMeV = CN[C@H](C(=O)O)C(C)C; ξNMeV = CNC(C(=O)O)C(C)C; Boc = CC(C)(C)OC(=O)*; OBn = c1ccc(CO*)cc1
Values of TGI greater than or equal to 20 µM map to t; values below map to f.

* O=c1[nH]c(=O)n(C2CC(O)C(CO)O2)cc1Br (stereo not given) | t
* Cc1c(-c2ccccn2)ccc2ccccc12 | t
* CSC(C1c2ccccc2N(C)c2[nH]c(=O)n(C)c(=O)c21)S(=O)(=O)c1ccc(C)cc1 (stereo not given) | t
* CN(CCCCCl)P(=O)(OCc1ccc([N+](=O)[O-])o1)OCC1OC(n2cc([N+](=O)[O-])c(=O)[nH]c2=O)CC1O (stereo not given) | t

For this compound, is measured TGI 20 µM or higher? N=C(CC(=O)Nc1ccccn1)c1ccccc1 t

For this compound, is measured TGI 20 µM or higher? Cc1[nH]c2cc([N+](=O)[O-])ccc2c1[N+](=O)[O-] t

For this compound, is measured TGI 20 µM or higher? CCCCCCCCCCCCOC1C(COCCN2CCCCC2)OC2OC(C)(C)OC21 (stereo not given) f

For this compound, is measured TGI 20 µM or higher? CC(C)C(C(=O)N(C)[C@H](C(=O)N1CCC[C@H]1C(=O)N(C)[C@@H](Cc1ccccc1)C(=O)OCc1ccccc1)C(C)C)N(C)C(=O)[C@@H](NC(=O)OC(C)(C)C)C(C)C (stereo not given in full) (Boc-V[ξNMeV][NMeV]P[NMeF]-OBn) f

For this compound, is measured TGI 20 µM or higher? CCCCOC(=O)NC(=O)c1cn(CCCOC(=O)CCCCCCCCC(=O)OCCCn2cc(C(=O)NC(=O)OCCCC)c(=O)n(C)c2=O)c(=O)n(C)c1=O t
